biological target: hCB1R (Homo sapiens, UniProt P21554); assay: Calcium mobilization assay, antagonist mode against CP55,940; format: cell-based; parameters: expressed in transfected cells; host or cells: CHO-RD-HGA16 cells (parental line from Molecular Devices); details: CHO cells expressing human CB1R; against CP55,940 (100 nM); mean ± SEM; read-out: hCB1R Calcium assay IC50
Sequence (P21554 whole entry): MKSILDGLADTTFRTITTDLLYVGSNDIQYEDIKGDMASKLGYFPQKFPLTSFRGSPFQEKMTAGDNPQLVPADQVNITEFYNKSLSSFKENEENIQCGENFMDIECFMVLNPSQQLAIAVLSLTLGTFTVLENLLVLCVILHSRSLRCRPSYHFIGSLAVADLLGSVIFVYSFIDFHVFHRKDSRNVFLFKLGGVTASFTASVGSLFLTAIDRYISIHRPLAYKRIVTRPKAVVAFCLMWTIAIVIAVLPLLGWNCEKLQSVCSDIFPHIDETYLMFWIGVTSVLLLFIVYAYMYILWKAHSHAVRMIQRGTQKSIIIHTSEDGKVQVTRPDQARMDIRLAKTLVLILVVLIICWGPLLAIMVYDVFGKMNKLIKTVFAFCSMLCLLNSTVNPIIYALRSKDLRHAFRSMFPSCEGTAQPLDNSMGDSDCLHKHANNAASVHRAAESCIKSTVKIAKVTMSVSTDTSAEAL
Value type: IC50

O=C(NCCN1CCCCC1)Nc1ccc(Cl)cc1
> 10 µM
O=C(NCCc1cccnc1)Nc1ccc(Cl)cc1
> 10 µM

Notebook: `CN1CCN(CCNC(=O)Nc2ccc(Cl)cc2)CC1` , IC50 read as > 10 µM

Notebook: O=C(Nc1ccc(Cl)cc1)N[C@@H]1C[C@@H]1c1ccccc1 (relative stereo) , IC50 read as > 10 µM

Notebook: `O=C(NCCN1CCCC1)Nc1ccc(Cl)cc1` , IC50 read as > 10 µM
